B1: Azoarcus group I ribozyme (parent)
chain: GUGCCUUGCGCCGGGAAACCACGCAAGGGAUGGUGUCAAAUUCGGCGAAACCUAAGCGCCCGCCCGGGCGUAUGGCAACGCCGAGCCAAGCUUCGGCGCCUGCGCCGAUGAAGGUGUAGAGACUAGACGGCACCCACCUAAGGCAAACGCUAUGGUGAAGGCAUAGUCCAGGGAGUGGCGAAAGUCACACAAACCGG

variants of: B1; assay: reverse-splicing fitness (ratio to wild type); higher = more active; in vitro selection; Mg2+ level not given
The following variants are listed with their measured reverse-splicing fitness values.

Worked cases, answers included:
mutationString: C82A A111G A120C A145U C169G U176G
testValue: 0.00526
//
mutationString: C82A A145C C150G C169G U176C
testValue: 0.0067
//
mutationString: A111C A120G C150A U176G
testValue: 0.00592

Ask | Which reverse-splicing fitness value is on record for A120G A145U C150A C169U ?
Reply | 0.0677

Ask | Which reverse-splicing fitness value is on record for C82G A111C A120G A145U C169G U176C ?
Reply | 0.0132

Ask | Which reverse-splicing fitness value is on record for A111G A120U C150U ?
Reply | 0.538

Ask | Which reverse-splicing fitness value is on record for C82U C150A C169U U176A ?
Reply | 0.0169

Ask | Which reverse-splicing fitness value is on record for A145C C150A C169U U176A ?
Reply | 0.023

Ask | Which reverse-splicing fitness value is on record for C82U A111U A120U A145G C150U U176G ?
Reply | 0.00322

Ask | Which reverse-splicing fitness value is on record for C82G A111G A120C A145G C150A C169A U176A ?
Reply | 0.0208
